Origin of the recorded values: patent US20260242735A1

// reported Mean % WT Binding for each item listed
# Assay target: human CD33 Q24S (human, UniProt P20138 18-364)
# Sequence (P20138 18-364 Q24S limits assumed): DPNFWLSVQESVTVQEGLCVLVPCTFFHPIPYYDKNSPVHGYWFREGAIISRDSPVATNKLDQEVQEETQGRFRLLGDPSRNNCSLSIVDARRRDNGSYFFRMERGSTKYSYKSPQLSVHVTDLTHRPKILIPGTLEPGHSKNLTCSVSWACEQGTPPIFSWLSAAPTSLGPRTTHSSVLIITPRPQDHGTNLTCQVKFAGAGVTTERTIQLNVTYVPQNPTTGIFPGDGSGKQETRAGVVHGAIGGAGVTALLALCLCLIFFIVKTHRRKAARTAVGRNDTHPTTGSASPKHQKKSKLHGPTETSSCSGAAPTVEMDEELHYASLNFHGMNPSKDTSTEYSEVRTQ
# Protocol details: flow cytometry, mutant on cells, IgG
Numeric only. Scale: % WT binding

Worked examples, 2 binders total:
Refmab #1 (antibody, human IgG1, V domains shown, Tested in IgG format; human IgG1 (Absolute Antibody hP67.6, Cat. No. Ab00283-10.0); also called hP67.6) VH: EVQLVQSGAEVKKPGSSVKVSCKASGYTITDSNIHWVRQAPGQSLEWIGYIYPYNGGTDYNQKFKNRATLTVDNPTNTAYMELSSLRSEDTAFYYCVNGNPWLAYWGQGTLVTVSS VL: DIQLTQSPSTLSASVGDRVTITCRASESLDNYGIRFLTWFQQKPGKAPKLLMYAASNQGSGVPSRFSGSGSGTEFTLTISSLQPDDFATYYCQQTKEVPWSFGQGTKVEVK has a reported Mean % WT Binding of 60.2

What the record says about Refmab #3 (antibody, human IgG1, V domains shown, Tested in IgG format; human IgG1 Fc silent (PG-LALA)) VH: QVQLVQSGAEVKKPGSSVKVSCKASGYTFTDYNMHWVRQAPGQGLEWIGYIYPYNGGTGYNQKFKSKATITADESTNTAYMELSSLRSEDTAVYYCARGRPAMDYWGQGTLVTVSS VL: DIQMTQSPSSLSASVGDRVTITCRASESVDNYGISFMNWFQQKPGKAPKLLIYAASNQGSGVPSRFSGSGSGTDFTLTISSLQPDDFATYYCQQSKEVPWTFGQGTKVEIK : Mean % WT Binding is 5.3

# ---- query binder ----
Data point: Refmab #4 (antibody, human IgG1, V domains shown, Tested in IgG format; human IgG1 Fc silent (PG-LALA)) VH: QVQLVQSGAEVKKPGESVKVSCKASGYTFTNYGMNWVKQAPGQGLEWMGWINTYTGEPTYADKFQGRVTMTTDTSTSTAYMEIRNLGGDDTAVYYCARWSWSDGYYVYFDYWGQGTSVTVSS VL: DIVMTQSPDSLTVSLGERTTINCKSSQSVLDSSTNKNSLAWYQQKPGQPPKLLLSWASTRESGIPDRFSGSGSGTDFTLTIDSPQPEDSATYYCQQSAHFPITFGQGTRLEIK ; Mean % WT Binding = 96.8
